Assay: Repeated administration toxicity trial for 10 weeks into the dorsal skin
Settings: both sexes, Sprague-Dawley (Crl:CD(SD)), rat, in vivo; both males and females, 10 weeks repeated administration; read-out: No-observed-adverse-effect level
Where no end group is shown, it is not given here.
// values below are reported NOAEL at 1680 h

item_sequence="ISQTPGINLDLGSGVKVKIIPKEEH [SLP2]" experimental_value="> 2 mg/kg"

Switching to the query record.
Input line: Would you kindly share the measured NOAEL at 1680 h for NQQLKVGILHLGSRQKKIRIQLRSQ [SLP1] ?
Output line: > 2 mg/kg
